Data provenance is patent US20250129086A1.

Recorded measurements of IC50, one per entry
test system: HCC827 (exon 19 deletion mutation); assay: Cell antiproliferative assay (CTG, 72 h), HCC827; format: cell-based, human; details: Homo sapiens, HCC827, 72 h, Table 2, HCC827 cells

# count of solved cases: 10
COc1cc(N2CCN(C(=O)CN3CCC(c4ccc(NC5CCC(=O)NC5=O)cc4)CC3)CC2)ccc1Nc1ncc(Cl)c(Nc2cccc3c2C(=O)N(C)C3)n1 (centres unmarked)
10 to 100 nM
COc1cc(N2CCN(C(=O)CN3CCC(c4ccc(NC5CCC(=O)NC5=O)cc4)CC3)CC2)ccc1Nc1ncc(Cl)c(Nc2ccccc2C(=O)N(C)C)n1 (centres unmarked)
100 to 1000 nM
COc1cc(N2CCN(C(=O)CN3CCN(c4ccc(NC5CCC(=O)NC5=O)nc4)CC3)CC2)ccc1Nc1ncc(Cl)c(Nc2ccccc2C(C)=O)n1 (centres unmarked)
100 to 1000 nM
CNC(=O)c1ccccc1Nc1nc(Nc2cc(C)c(N3CCN(C(=O)CN4CCC(c5ccc(NC6CCC(=O)NC6=O)cc5F)CC4)CC3)cc2OC)ncc1Br (centres unmarked)
10 to 100 nM
COc1cc(N2CCC(N3CCN(C(=O)CN4CCC(c5ccc(NC6CCC(=O)NC6=O)cc5)CC4)CC3)CC2)ccc1Nc1ncc(Cl)c(Nc2ccccc2N(C)S(C)(=O)=O)n1 (centres unmarked)
10 to 100 nM
CNC(=O)c1ccccc1Nc1nc(Nc2cc(C)c(N3CCN(C(=O)CN4CCC(c5ccc(NC6CCC(=O)NC6=O)cc5)CC4)CC3)cc2OC)ncc1Cl (centres unmarked)
10 to 100 nM
COc1cc(N2CCN(C(=O)CN3CCC(c4ccc(NC5CCC(=O)NC5=O)cc4)CC3)CC2)ccc1Nc1ncc(Cl)c(Nc2ccc(F)cc2C(C)(C)O)n1 (centres unmarked)
100 to 1000 nM
COc1cc(N2CC[C@H](N(C)C(=O)CN3CCC(c4ccc(NC5CCC(=O)NC5=O)cc4)CC3)C2)ccc1Nc1ncc(Cl)c(Nc2ccccc2C(C)=O)n1 (some centres unmarked)
10 to 100 nM
COc1cc(N2CCN(C(=O)CN3CCC(c4ccc(NC5CCC(=O)NC5=O)cc4)CC3)CC2)ccc1Nc1ncc(Cl)c(Nc2ccccc2N(C)S(C)(=O)=O)n1 (centres unmarked)
10 to 100 nM
COc1cc(N2CCN(C(=O)CN3CCC(c4ccc(NC5CCC(=O)NC5=O)cc4)CC3)CC2)c(C#N)cc1Nc1ncc(Br)c(Nc2ccccc2C(C)=O)n1 (centres unmarked)
10 to 100 nM

Kindly consider the entry below.
[in] Report IC50 for CNC(=O)c1ccccc1Nc1nc(Nc2cc(C(F)(F)F)c(N3CCN(C(=O)CN4CCC(c5ccc(NC6CCC(=O)NC6=O)cc5)CC4)CC3)cc2OC)ncc1Br (centres unmarked) tested on HCC827 (exon 19 deletion mutation).
[out] 10 to 100 nM

====

molecular target: EGFR (Homo sapiens, UniProt P00533, DEL746-750); construct: host or cells: HCC827; assay: EGFR PROTAC In Cell Western assay in HCC827; type: cell-based; details: HCC827, Table 4; HCC827, EGFR degradation, 16 hours of incubation
Sequence (P00533 with tags, fused parts or gaps DEL746-750): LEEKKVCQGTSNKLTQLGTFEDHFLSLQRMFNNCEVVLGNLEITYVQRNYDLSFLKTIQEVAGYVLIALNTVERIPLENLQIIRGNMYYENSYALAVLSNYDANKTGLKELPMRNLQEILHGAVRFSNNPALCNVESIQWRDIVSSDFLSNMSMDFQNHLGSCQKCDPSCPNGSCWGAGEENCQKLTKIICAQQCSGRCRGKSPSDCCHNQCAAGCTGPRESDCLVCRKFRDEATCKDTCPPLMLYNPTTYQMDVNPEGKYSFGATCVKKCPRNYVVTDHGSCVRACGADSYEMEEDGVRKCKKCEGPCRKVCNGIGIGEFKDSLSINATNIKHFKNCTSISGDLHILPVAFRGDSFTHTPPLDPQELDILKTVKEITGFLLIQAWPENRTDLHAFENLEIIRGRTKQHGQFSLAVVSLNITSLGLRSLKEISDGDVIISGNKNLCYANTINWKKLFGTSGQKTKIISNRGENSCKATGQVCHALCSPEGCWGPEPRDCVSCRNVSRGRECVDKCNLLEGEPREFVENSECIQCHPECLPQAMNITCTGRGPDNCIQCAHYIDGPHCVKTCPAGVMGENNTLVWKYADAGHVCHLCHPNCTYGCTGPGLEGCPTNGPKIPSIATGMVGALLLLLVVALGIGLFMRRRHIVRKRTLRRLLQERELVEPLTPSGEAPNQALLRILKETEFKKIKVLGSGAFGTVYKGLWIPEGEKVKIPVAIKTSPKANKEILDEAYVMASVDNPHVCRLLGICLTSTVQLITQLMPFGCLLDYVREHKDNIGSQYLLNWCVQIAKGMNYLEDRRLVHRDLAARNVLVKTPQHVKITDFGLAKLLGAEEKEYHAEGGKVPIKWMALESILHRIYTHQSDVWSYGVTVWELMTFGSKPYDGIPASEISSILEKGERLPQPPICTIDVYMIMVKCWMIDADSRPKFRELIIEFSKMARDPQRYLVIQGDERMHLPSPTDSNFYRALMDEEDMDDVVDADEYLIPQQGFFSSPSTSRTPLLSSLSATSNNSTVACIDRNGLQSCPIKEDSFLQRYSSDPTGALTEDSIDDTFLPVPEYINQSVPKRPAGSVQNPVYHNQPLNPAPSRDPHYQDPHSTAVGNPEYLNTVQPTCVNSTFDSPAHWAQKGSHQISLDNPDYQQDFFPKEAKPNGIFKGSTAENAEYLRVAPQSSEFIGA
ENDPOINT: Dmax

# count of solved cases: 2
O=C1CCC(Nc2ccc(C3CCN(CC(=O)N4CCN(c5ccc(-c6cc(F)c7c(c6)C(=O)N(C(C(=O)Nc6nccs6)c6ncn8c6CCC8)C7)cc5)CC4)CC3)cc2)C(=O)N1 (stereo not drawn) [Comparative Compound 1, reference compound]
< 50%
CNC(=O)c1ccccc1Nc1nc(Nc2cc(C)c(N3CCN(C(=O)CN4CCC(c5ccc(NC6CCC(=O)NC6=O)cc5)CC4)CC3)cc2OC)ncc1Cl (stereo not drawn) [Compound T-254]
70 to 100%

Kindly consider the entry below.
[in] Dear colleague, I am looking for the recorded Dmax of the following compound: COc1cc(N2CCC(N(C)C(=O)CN3CCC(c4ccc(NC5CCC(=O)NC5=O)cc4)CC3)CC2)ccc1Nc1ncc(C(F)(F)F)c(Nc2ccccc2C(C)=O)n1 (stereo not drawn) [Compound T-163]
[out] 50 to 70%
